The measured values listed here are drawn from paper PMC5540273.

System: LOK
Construct: gene STK10
Details: concentration: 1 μM,replicates: in singlicate; n = 1;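 also: KINOMEscan kinase panel screen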
Below, each of the molecules is paired with its reported %Inh value.
Remember to follow the number with its unit.

Looking up COc1cccc(CNC(=O)NC2CCN(c3ccnc(Nc4cc(OC)c(OC)c(OC)c4)n3)C2)c1 (stereo not shown) , I found its %Inh recorded as 49%

molecule `O=C(Nc1cccc(Oc2ccc3nccn3n2)c1)Nc1cccc(C(F)(F)F)c1` , %Inh observed: 64%

%Inh reading for `CC(=O)Nc1nc2cnc(Nc3cc(NC(=O)c4cccc(CC(C)(C)C#N)c4)ccc3C)nc2s1` : 55%

###

System: TIE2
Construct: gene TEK
Details: concentration: 1 μM,replicates: in singlicate; n = 1
Strictly below 10% in %Inh: Condition met. Otherwise: Condition not met.

Answered cases to consult:
>>> print(df.to_string())
                                   compound  assaysystem           category
0  COC(=O)c1cccc(NC(=O)NC2CCN(c3ccnc(NCc4ccc(F)cc4)n3)CC2)c1 [GSK1379860]         TIE2      Condition met
1  Cn1ccc2ncnc(Oc3ccc(NC(=O)Nc4cncc(C(F)(F)F)c4)c(Cl)c3)c21         TIE2  Condition not met
2  CS(=O)(=O)c1cccc(CNc2nc(Nc3ccc4c(c3)[C@@H]3C[C@@H]4CNC3=O)ncc2C(F)(F)F)c1         TIE2  Condition not met
3  C[C@@H](Oc1cc(-n2cnc3cc(-c4ccncc4)ccc32)sc1C(N)=O)c1ccccc1Cl [GSK479719]         TIE2  Condition not met
4  COc1ccc(Nc2nccc(N3CCC(NC(=O)c4cccc(C#N)c4)C3)n2)cc1 (stereo not drawn) [GSK1379730]         TIE2      Condition met

Challenge: Could you please tell me whether %Inh recorded for FC(F)(F)c1cc(Br)cc(Nc2nccc(-c3cnn4ncccc34)n2)c1 [GW810578] is less than 10%?
Response given: Condition met

Challenge: Please check: %Inh for COc1cc(Nc2nccc(N3CCC(NC(=O)c4cccc(C#N)c4)C3)n2)cc(OC)c1OC (stereo not drawn) [GSK1379751] , strictly under 10% or not?
Response given: Condition met

Challenge: A record lists N#Cc1cccc(C(=O)NC2CCN(c3ccnc(Nc4ccc(F)cc4)n3)C2)c1 (stereo not drawn) [GSK1379708] . Is its %Inh below 10%?
Response given: Condition met

Challenge: Regarding CN1CCN(CCCNc2nccc(-c3c(-c4ccc(F)cc4)nn4cc(C(N)=O)ccc34)n2)CC1 [GW622475] , kindly confirm whether its %Inh is beneath 10%.
Response given: Condition met

Challenge: Find out if reported %Inh for `CN(c1ccccc1CNc1nc(Nc2ccc3c(c2)CC(=O)N3)ncc1C(F)(F)F)S(C)(=O)=O` is less than 10%
Response given: Condition not met

###

System: CAMK4
Conditions: concentration: 1 μM,replicates: in singlicate; n = 1
The entries below are paired with their reported %Inh.
Quick reminder: number only, in %, skip the unit.

>>> print(df.to_string())
                                   compound  metric  unitannotation  datavalue
0  COC(=O)Nc1nc2cc(Oc3ccc(NC(=O)Nc4cc(C(F)(F)F)ccc4Cl)cc3)ccc2[nH]1.Cl [GW697465]    %Inh               %          0

Param item: CN1CCN(CCCNc2nccc(-c3c(-c4ccc(F)cc4)nn4cc(C(N)=O)ccc34)n2)CC1 [GW622475] ; param system: CAMK4; output %Inh: 0

Considering `O=C(Nc1cccc(Oc2ccc3nccn3n2)c1)Nc1cccc(C(F)(F)F)c1` , its %Inh with CAMK4 was recorded as 0

Result for `C[C@@H]1CCN(C(=O)N2CCCC2)C[C@@H]1N(C)c1ncnc2[nH]ccc12` , tested on CAMK4, %Inh: 19

Response field %Inh (CAMK4) for item O=C(Nc1n[nH]c2cc(-c3ccco3)ccc12)C1CC1 [SB-737447] : 0

Entry CN(c1ccc2c(c1)nc(NCc1ccc(F)cc1)n2C)c1ccnc(Nc2ccc(CS(C)(=O)=O)cc2)n1.Cl [GW813244] , tested on CAMK4, has a reported %Inh of 0

Record `CN(c1ccccc1CNc1nc(Nc2ccc3c(c2)CC(=O)N3)ncc1C(F)(F)F)S(C)(=O)=O` has CAMK4 %Inh equal to 0

Per the reported CAMK4 data, `O=C1NCCc2[nH]c(-c3ccncc3)cc21` has %Inh of 0

// assay CAMK4, entry COc1cc2c(Nc3ccc(NC(=O)c4ccccc4)cc3)ncnc2cc1OCCCN1CCOCC1 [GSK301329] , %Inh value = 0

The recorded %Inh with CAMK4 for Nc1nccc(-c2ccc3c(N)n[nH]c3c2)n1 [GSK1034945] was 0

Record for CC(=O)c1c(-c2ccncc2)[nH]c(-c2ccncc2)c1C [GW493036] under target or system CAMK4: %Inh reported as 0

Entry `O=C(Nc1cccc(C(F)(F)F)c1)c1cccc(Oc2ccc3nccn3n2)c1` , CAMK4 data, %Inh value: 0

The value of %Inh recorded for CC(C)c1nc(-c2cccc(NS(=O)(=O)c3ccccc3)c2)c(-c2ccnc(Nc3ccc4c(c3)CN(C)CC4)n2)s1 [GSK1649598] when tested on CAMK4 reads 0

Simply: CN1CCN(CCNc2nc3cc(Oc4ccc(NC(=O)Nc5cc(C(F)(F)F)ccc5F)cc4)ccc3[nH]2)CC1.Cl.Cl [GW768504] , CAMK4, %Inh = 20

The value of %Inh recorded for `C[C@@H]1CNc2c(sc3ccc4nc(-c5ccc(O)cc5)ccc4c23)C(=O)N1` when tested on CAMK4 reads 30

Observed %Inh on CAMK4, entry C[C@@H](Oc1cc(-n2cnc3cc(-c4cnn(C)c4)ccc32)sc1C(N)=O)c1ccccc1Cl [GSK580432] , equals 0

Observed %Inh, CAMK4, `OCCn1cc(-c2cnc3nnn(Cc4ccc5ncccc5c4)c3n2)cn1` : 0

Summary: `CC(=O)Nc1nc2cnc(Nc3cc(NC(=O)c4cccc(CC(C)(C)C#N)c4)ccc3C)nc2s1` , CAMK4, %Inh = 0

Response field %Inh (CAMK4) for item Cc1cccc(-c2nc(Nc3ccncc3)c3sccc3n2)n1 [GW869641] : 0

Form field %Inh for item CS(=O)(=O)Nc1ccc(-c2ccnc3[nH]ccc23)cc1 [GSK993273] on CAMK4: 0

The observed %Inh for COc1cc2nccc(Nc3ccc(Oc4ccccc4)cc3)c2cc1OC.Cl [GI261656] when tested with CAMK4 stands at 0

Entry `C[C@@H]1CNc2c(sc3ccc4nc(-c5ccncc5)ccc4c23)C(=O)N1` : %Inh on CAMK4 = 13

Item `O=C(NOCC1CC1)c1cc(Br)c(F)c(F)c1Nc1ccc(I)cc1Cl` ; assay system CAMK4; %Inh reported as 0

###

# %Inh values compiled below
Test system: RIPK2
Conditions: concentration: 1 μM,replicates: in singlicate; n = 1
Don't forget the unit after the number, please.

# example entries with known answers
                                 smilestext  assaysystem  metric  datavalue
0  CC(=O)Nc1ccc(-c2cc3ncnc(SCC(=O)O)c3s2)cc1        RIPK2    %Inh         0%
1  CC(=O)Nc1nc2cnc(Nc3cc(NC(=O)c4cccc(CC(C)(C)C#N)c4)ccc3C)nc2s1        RIPK2    %Inh         0%
2  COc1cccc(C2=C(Nc3cccc(Cl)c3)C(=O)NC2=O)c1        RIPK2    %Inh         0%
3  CN(c1ccc2c(c1)nc(NCc1ccc(F)cc1)n2C)c1ccnc(Nc2ccc(CS(C)(=O)=O)cc2)n1.Cl        RIPK2    %Inh        25%
4  C[C@@H]1CCN(C(=O)N2CCCC2)C[C@@H]1N(C)c1ncnc2[nH]ccc12        RIPK2    %Inh         0%
5  C[C@@H]1CNc2c(sc3ccc4nc(-c5ccncc5)ccc4c23)C(=O)N1        RIPK2    %Inh         0%

Result for `O=C(Nc1ccc(Oc2ccc3nc(NC(=O)C4CC4)cn3n2)c(F)c1)c1cccn(-c2ccccc2)c1=O` , tested on RIPK2, %Inh: 4%

###

Test system: RSK1(Kin.Dom.1-N-terminal)
Construct: gene RPS6KA1
Conditions: concentration: 1 μM,replicates: in singlicate; n = 1
metric: %Inh
Lab note: write values as number then unit, every time.

In [3]: df
Out[3]:
                                   compound  metric  datavalue
0  Cl.Cl.NC[C@H](CC1CCCCC1)NC(=O)c1ccc(-c2ccnc3[nH]ccc23)s1 [GSK1581428]    %Inh        23%
1  CCN1CCN(CCCC(=O)Nc2n[nH]c3nc(-c4ccc(O)cc4)c(Br)cc23)CC1 [SB-731579]    %Inh         0%
2  O=C(Nc1cccc(Oc2ccc3nccn3n2)c1)Nc1cccc(C(F)(F)F)c1    %Inh         0%
3  C[C@@H]1CNc2c(sc3ccc4nc(-c5ccc(O)cc5)ccc4c23)C(=O)N1    %Inh         6%
4  Cc1cccc2c(-c3ccncc3)c(-c3ccc(F)cc3)nn12.Cl [GW461487]    %Inh        11%
5      Cn1cc(-c2cccc3c(N)c(C(N)=O)nnc23)cn1    %Inh         0%
6  COC(=O)c1cccc(NC(=O)NC2CCN(c3ccnc(Nc4cc(OC)c(OC)c(OC)c4)n3)C2)c1 (stereo not drawn) [GSK1379767]    %Inh        21%
7  Cc1ccc(Nc2ccnc(Nc3ccc4c(c3)CS(=O)(=O)C4)n2)cc1O.Cl [GW579362]    %Inh        20%
8  C[C@@H](Oc1cc(-n2cnc3ccc(-c4ccncc4)cc32)sc1C(N)=O)c1ccccc1Cl [GSK483724]    %Inh        40%
9  O=c1[nH]cc(-c2ccc(O)cc2)c2sc(-c3ccncc3)cc12 [GSK1033723]    %Inh        10%

Documented %Inh of O=C(NCC1CC1)c1ccc(-c2cc(C(=O)NC3CC3)ccc2F)cc1 [GW810445] : 0%

What the record says about `Cn1ccc2ncnc(Oc3ccc(NC(=O)Nc4ccnc(C(F)(F)F)c4)c(Cl)c3)c21` : %Inh is 0%
